Origin of measurements: ChEMBL document CHEMBL1201862

test system: COLO 205; test: NCI tumour cell line growth inhibition, 48 h
Active and inactive are the calls of the source. Rule as the data show it: active = GI50 up to about 1.1 µM and inactive = higher.
VALUE TYPE: GI50

COMPOUND	SYSTEM NAME	VALUE TYPE	TEST VALUE
O=C(O)C(Cc1ccccc1)N1C(=O)N/C(=C\c2ccc(F)cc2)C1=O (stereo not given)	COLO 205	GI50	> 100 µM (inactive)
COc1cc(C2c3cc4c(cc3OC(C)(N3CCCC3)C2C)OCO4)cc(OC)c1OC (stereo not given)	COLO 205	GI50	0.22 µM (active)
COc1cc(OC)c2ssc3c(OC)cc(OC)c4ssc1c2-c43	COLO 205	GI50	> 100 µM (inactive)
C1CCN2CC34CC(CC5CCCN(C6CCCC3N6)C54)C2C1 (stereo not given)	COLO 205	GI50	> 100 µM (inactive)
COc1cc(/C=C2\N=C(C)N(n3c(-c4ccccc4)nc4ccccc4c3=O)C2=O)cc(OC)c1OC	COLO 205	GI50	> 100 µM (inactive)
COc1ccc(C(C)NNC(=O)c2cc[n+]([BH2-]C#N)cc2)cc1F (stereo not given)	COLO 205	GI50	> 100 µM (inactive)
COc1ccc(CCCNC(=O)Cc2cc(OC)c(OC)cc2CO)cc1OC	COLO 205	GI50	> 100 µM (inactive)
CCCCCCCCCc1c(Cl)nc(Cl)nc1Cl	COLO 205	GI50	19.5 µM (inactive)
O=C(/C(=C(/Br)I)c1ccccc1)c1ccccc1	COLO 205	GI50	17.6 µM (inactive)
C(CCCCc1nnc(N2CCOCC2)o1)CCCc1nnc(N2CCOCC2)o1	COLO 205	GI50	> 100 µM (inactive)

###

Below, each of the compounds is paired with its reported GI50 value.
tested on: M19-MEL; assay: NCI tumour cell line growth inhibition, 48 h
The source made the active and inactive calls. Cut-off read from the data, not from the text of the source: active = GI50 up to about 1.1 µM and inactive = higher.

COMPOUND	GI50
CC1OC(=O)N2CCC=CC12 (stereo unspecified)	> 100 µM (inactive)
CC(=O)Nc1ccc(-c2nnc(SCC(=O)Nc3cccc([N+](=O)[O-])c3)o2)cc1	15.1 µM (inactive)
COC(=O)CCC1(NS(=O)(=O)c2ccc(C)cc2)CCC(C(C)(C)C)CC1 (stereo unspecified)	11.4 µM (inactive)
O=c1oc2ccccc2c(O)c1C(C/C(CCN1CCCC1)=N/O)c1ccccc1 (stereo unspecified)	> 100 µM (inactive)
CS/C(=N\c1ccc([N+](=O)[O-])cc1C#N)NC(=O)c1ccccc1	> 100 µM (inactive)
C#CC1(O)CC(c2ccccc2)N(C)C(c2ccccc2)C1 (stereo unspecified)	> 100 µM (inactive)

###

tested on: DMS-273; experiment: NCI tumour cell line growth inhibition, 48 h
The source made the active and inactive calls. Cut-off read from the data, not from the text of the source: active = GI50 up to about 1.1 µM and inactive = higher.
Possible outcomes: label 1 (active), label 0 (inactive)

COMPOUND	SYSTEM NAME	CATEGORY
COC(=O)C1[C@H](c2ccc3c(c2)OCO3)OC(=O)[C@]1(C(=O)OC)C(=O)c1ccc(OC)c(OC)c1 (stereo partly drawn)	DMS-273	label 0
O=C(/C=N/O)Nc1ccc(Cl)c(I)c1	DMS-273	label 0
CC(Cl)(/C=C/Cl)C(Cl)/C=C/C(Cl)(CCl)CBr (stereo not drawn)	DMS-273	label 0
O=C(CC(=O)N1N=C(N2c3ccccc3Sc3ccccc32)CC1c1ccccc1)Nc1ccc(Cl)cc1 (stereo not drawn)	DMS-273	label 0
O=S(=O)(O)c1ccc([Se][Se]c2ccc(S(=O)(=O)O)cc2)cc1	DMS-273	label 0
CCO/N=C(/N)c1ncn(Cc2ccccc2)c1NCC(OCC)OCC	DMS-273	label 0
Cc1c2cc[n+](C)cc2c(C)c2c1sc1ccccc12	DMS-273	label 1
COc1cc(C2C(Cl)C(=O)N2n2cnc3ccccc3c2=O)cc(OC)c1OC (stereo not drawn)	DMS-273	label 0
CCOC(=O)C1=C(C)C2C3C(=O)OC(=O)C3C1(C)C1C(=O)OC(=O)C21 (stereo not drawn)	DMS-273	label 0
CC(OC1CC(=O)CC2C(=O)C=CC(=O)C12)c1ccccc1 (stereo not drawn)	DMS-273	label 0
CCN(CC)CCNc1ccc2ncn3c4ccc(OC)cc4c(=O)c1c23	DMS-273	label 0
CC(=O)CC[N+](C)(C)C	DMS-273	label 0
Cc1ccc(NC(=O)CCC(=O)C(C#N)c2ccccc2)cc1C (stereo not drawn)	DMS-273	label 0
COc1ccc2c3c(c(C(=O)O)oc13)CCC2	DMS-273	label 0
Nc1ccccc1C(=O)CCC1C(=O)NC(=S)NC1=O	DMS-273	label 0
c1ccc2c(c1)oc1ccc3nsnc3c12	DMS-273	label 0
Sc1nnc(COc2ccc(Cl)cc2Cl)[nH]1	DMS-273	label 0
CN(C)C(=S)/N=c1\ssc(=S)n1Cc1ccco1	DMS-273	label 1
O=C(Nc1ccc(Cl)cc1Cl)C1C(=O)N(c2ccc(Cl)cc2Cl)C(=O)/C1=N\Nc1ccc([N+](=O)[O-])cc1[N+](=O)[O-] (stereo not drawn)	DMS-273	label 0
OC1=CN=C(C2CC2)Oc2ccccc21	DMS-273	label 0
O=C1c2ccccc2C2(Br)C(=O)c3ccccc3C12 (stereo not drawn)	DMS-273	label 0
CSC1(C)CC2C(CC1N1CCCCC1)C2(C)C (stereo not drawn)	DMS-273	label 0
c1ccc(C2CC(c3ccc4ccccc4c3)=Nc3ccccc3S2)cc1 (stereo not drawn)	DMS-273	label 0
